pKi: −log10 of the molar value.
Recorded below: pKi, system GST-Bcl-xL (Homo sapiens, UniProt Q07817).

Consider the following illustrative entries.
Lab note: need pKi for "COCCC1(Cn2ncc(-c3ccc(N4CCc5cccc(C(=O)Nc6nc7ccccc7s6)c5C4)nc3C(=O)NS(C)(=O)=O)c2C)CCCCCC1" on GST-Bcl-xL (Homo sapiens, UniProt Q07817), anyone have it? > 10.00

Reported pKi for GST-Bcl-xL (Homo sapiens, UniProt Q07817), given COCCC1(Cn2ncc(-c3ccc(N4CCc5cccc(C(=O)Nc6nc7ccccc7s6)c5C4)nc3C(=O)O)c2C)CCCC(C)(C)C1 (centres unmarked) ? > 10.00

Provide the documented pKi with GST-Bcl-xL (Homo sapiens, UniProt Q07817) as the system for "CN(C)CCOc1ccc(Cn2cc(-c3ccc(N4CCc5cccc(C(=O)Nc6nc7ccccc7s6)c5C4)nc3C(=O)O)cn2)cc1" < 6.00

Form entry - test system: GST-Bcl-xL (Homo sapiens, UniProt Q07817); read-out: pKi; compound: Cc1c(-c2ccc(N3CCc4cccc(C(=O)Nc5nc6ccccc6s5)c4C3)nc2C(=O)O)cnn1C(CCN1CCOCC1)C1CCCCC1 (centres unmarked) > 10.00

GET /values?readout=pKi&system=GST-Bcl-xL (Homo sapiens, UniProt Q07817)&item= "Cc1c(-c2ccc(N3CCc4cccc(C(=O)Nc5nc6ccccc6s5)c4C3)nc2C(=O)O)cc(C#N)n1Cc1ccccc1" > 10.00

Lookup: pKi / GST-Bcl-xL (Homo sapiens, UniProt Q07817) / "COCCC1(Cn2ncc(-c3ccc(N4CCc5cccc(C(=O)Nc6nc7ccccc7s6)c5C4)nc3C(=O)O)c2C)CCCCCC1" > 10.00

Give GST-Bcl-xL (Homo sapiens, UniProt Q07817) pKi for "O=C(Nc1nc2ccccc2s1)c1cccc2c1CN(c1ccc(-c3cccc(OC4CCCCC4)c3Cl)c(C(=O)O)n1)CC2" > 10.00

# returns recorded pKi (system: GST-Bcl-xL (Homo sapiens, UniProt Q07817)) for "O=C(Nc1nc2ccccc2s1)c1cccc2c1CN(c1ccc(-c3cnn(Cc4cccc(OCc5ccccc5)c4)c3)c(C(=O)O)n1)CC2" 6.80

Lookup: pKi / GST-Bcl-xL (Homo sapiens, UniProt Q07817) / Cc1c(-c2ccc(N3CCc4cccc(C(=O)Nc5nc6ccccc6s5)c4C3)nc2C(=O)O)cnn1CC1(N2CCOCC2)CCCC(C)(C)C1 (centres unmarked) > 10.00

Lab request: please report pKi under test system GST-Bcl-xL (Homo sapiens, UniProt Q07817) for "Cc1c(OC2CCCCC2)cccc1-c1ccc(N2CCc3cccc(C(=O)Nc4nc5ccccc5s4)c3C2)nc1C(=O)O" 9.70

***
Form: Entry = "O=C(Nc1nc2ccccc2s1)c1cccc2c1CN(c1ccc(-c3cccc(OC4CCCCC4)c3C(F)(F)F)c(C(=O)O)n1)CC2" | System = GST-Bcl-xL (Homo sapiens, UniProt Q07817) | pKi = ____ 9.40
